A collection of compounds and their measured melting point

Answered examples (8):
Identify measured melting point corresponding to COc1ccc(Oc2ccc(Cl)cc2[N+](=O)[O-])c(C=O)c1
127 to 128 °C

For the compound CCCC(=O)c1cc(C(=O)O)c2cc(Cc3ccc(F)cc3)cnc2c1O , give its measured melting point value.
232 to 234 °C

Determine its reported melting point: O=C(O)CCOc1ccc(CNC(=O)C2Cc3ccccc3N2S(=O)(=O)c2ccc(-c3cccc(C(F)(F)F)c3)cc2)cc1 (centres undefined)
72 °C

Respond only with melting point recorded for COC(=O)c1ccc(C(=S)Nc2ccccc2OC)cc1
105 to 107 °C

Give reported melting point value for CCN(c1nc(C)cc(C(=O)c2ccc3[nH]ccc3c2)n1)c1ccc(C(C)C)cc1Br
77 to 79 °C

Supply melting point value. Item: Cn1cc(O)c(=O)c2ccc(F)cc21
283 to 285 °C

Return melting point (reported value) for this compound: CCOC(=O)CC(NC(=O)c1ccc(C)cc1)C(=O)c1ccco1 (centres undefined)
83.5 to 84.5 °C

Hello, please tell me recorded melting point for this one: COc1ccc(N(CCN2CCC(C(=O)c3ccc(F)cc3)CC2)C(=O)c2ccc(C#N)cc2)cc1
136 to 149 °C

New cases:
Hello, please tell me recorded melting point for this one: O=C(c1cccs1)c1cnn2c(-c3cccc([N+](=O)[O-])c3)ccnc12
199 to 201 °C

Identify the reported melting point for the following entry. Nc1cnc2cccnc2c1Cl
188 to 190 °C

Input CC(C)S(=O)(=O)NCC(C)(F)c1ccc(-c2cccc3c2CC(=O)N3)cc1 (centres undefined) , output reported melting point.
86 to 87 °C

Complete the entry with melting point for O=C1NC(=O)c2c1cc1ccc3c(c1c2-c1ccc2c(c1)OCO2)OCC3
> 320 °C

Return reported melting point. Input compound: CC(C)(C)c1ccc2cc3cc(C(C)(C)C)ccc3cc2c1
249 to 253 °C

Quote melting point reported for COc1c(N2CCCC(NC(C)=O)C2)c(F)cc2c(=O)c(C(=O)O)cn(C3CC3)c12 (centres undefined) please.
176 to 177 °C

Give a short answer stating reported melting point for CNC(=O)CNC(=S)c1cccnc1 .
135 to 137 °C

Quickly give me recorded melting point for Cc1cc(C(=S)N(C)C)ncc1C(c1cc(F)ccc1F)S(=O)(=O)c1ccc(F)cc1 (centres undefined)
161 to 164 °C

Item COC(=O)C[C@H](O)C[C@H](O)C=Cc1c(-c2ccc(F)cc2)c(-c2ccccc2)c(C(=O)Nc2cccc(S(N)(=O)=O)c2)n1C(C)C : provide melting point
85 to 87 °C

For CCn1nc(OCC(=O)c2ccc(F)cc2)c(-c2ccc(F)cc2)c1-c1ccc(OC)cc1 , write its melting point.
170 to 171 °C

Give the value of melting point reported for the following: COC(=O)[C@@H]1CSC(=S)N1CC(C)(C)SCc1ccc(OC)cc1
125 to 127 °C

====

melting point: recorded values

Return melting point (reported value) for this compound: C=CCOc1ccc2ccc(=O)oc2c1
165 °C

Annotate the compound Nc1n[nH]c2c1CCC2 with its measured melting point.
116 to 120 °C

Quote melting point reported for O=C1COc2ccc([N+](=O)[O-])cc2N1 please.
221 to 223 °C

Identify the reported melting point for the following entry. OCC1OC(n2c(S)nc3c(NCc4ccccc4)ncnc32)C(O)C1O (centres undefined)
145 to 148 °C

Please look at this compound and report its melting point: CCc1cccc(C)c1CNc1nc(C(=O)N(C)C)cc2[nH]c(C)nc12
207 to 208 °C

====

// reported melting point per item

Sample answers from the record:
Tell me melting point reported for CC(=O)Nc1c(C#N)cnn1-c1c(Cl)cc(Cl)c(Cl)c1Cl
115 °C

Hello, please tell me recorded melting point for this one: Clc1cc(-c2ccc3c(c2)CCO3)nc2ccccc12
130 to 132 °C

Assign melting point to the following record: O=C1NC(C(=O)NCCO[N+](=O)[O-])C(c2ccccc2)S1 (stereo not given)
139 to 140 °C

Find the measured melting point of COC(=O)C1(NC(=O)Cc2c(C)ccc(-c3ccc(Cl)cc3)c2C)CCC(F)(F)CC1 and report it.
179 to 183 °C

Continuing:
Identify the reported melting point for the following entry. COC1=CC(=O)C2=C(C1=O)C(Cl)C(Cl)CC2 (stereo not given)
119 to 123 °C

Annotate the compound C[C@@H](NC(=O)[C@@H](NC(=O)[C@H](C/C=C/c1ccc(-c2ccccc2)c(F)c1)CC(=O)OC(C)(C)C)C(C)(C)C)c1ccccc1 with its measured melting point.
165 to 168 °C

Supply recorded melting point for CCCCCCCCCc1ccc(-c2nc(C)c(C(C)=NNC(=N)N)s2)cc1 here.
203 to 206 °C

Supply melting point value. Item: OC1CC(CN2CCC(c3ccccc3)CC2)CCc2ccccc21 (stereo not given)
48 to 50 °C

Read the entry CCn1nc(C(F)(F)F)c(C(=O)O)c1Cl and write its reported melting point.
164 to 166 °C

Return the recorded melting point value; entry: COc1ccc(-n2nc(C#N)cc2-c2ccc(S(C)(=O)=O)cc2)cc1F
192 to 193 °C

====

READOUT: melting point

Some compounds with recorded melting point:
State its melting point: CCOC(=O)C(=Cc1cccc(OC)c1OC)N=[N+]=[N-]
< 50 °C

Name the recorded melting point of the compound listed here: COc1ccc(CCCNC(=O)c2coc(-c3ccc(/C(=C\CCCCC(=O)O)c4cccnc4)cc3)n2)cc1
49 to 58 °C

Note down melting point recorded for COCCOc1ccc(COC(C)=O)c(Oc2ncc(C(F)(F)F)cc2Cl)c1
52.5 to 53 °C

// fetch melting point given entry Cc1ccc(C)n1C(=O)c1cc2cc(Br)ccc2o1
115 to 116 °C

Next:
Dear colleague, please send me the reported melting point for CCNC(=O)c1ccnc([N+](=O)[O-])c1 when you can.
65 to 67 °C

====

READOUT: melting point

Look up and report measured melting point for this entry: Cc1nnc2ccc(-c3cccc(N4CCCC4=O)c3)nn12
235 to 237 °C

Return the recorded melting point value; entry: C#CCN(C(=O)c1ccco1)c1c(C)cccc1C
113 °C

Return reported melting point. Input molecule: Cn1cccc1-c1cc(OC(F)F)n(-c2ccc(NC(=O)c3ccncc3F)cc2)n1
154 to 155 °C

Specify measured melting point for COc1ccccc1N1CCN(CCCO)CC1 .
88 to 89 °C

Annotate the molecule CC(C)c1ccc(C(=O)NCCOc2ccc(C(=O)O)cc2)cc1 with its measured melting point.
202 to 203 °C

Return value of melting point for input Cc1ccc2nc(C(=O)Nc3ccccn3)[nH]c2c1 , no commentary.
230 °C

Next up:
Let me know recorded melting point for Cc1nc(N2CCOCC2)sc1-c1ccnc(Nc2ccc(N3CCOCC3)cc2)n1 , thanks.
229 to 231 °C

====

This listing pairs compounds with measured melting point.

Below, each entry is followed by its recorded melting point result.
Assign melting point to the following record: C=CCNc1nnc(-c2ccc(F)c(F)c2Nc2ccc(I)cc2F)o1
175 to 178 °C

# return recorded melting point for entry CN(C)C=Nc1ccc2nnc(-c3ccc([N+](=O)[O-])o3)n2n1
291 to 296 °C

Hello, please tell me recorded melting point for this one: CCOC(=O)c1c(N2CCNCC2)c2cccnc2n(Cc2ccccc2)c1=O
120 °C

Fill in melting point for record CS(=O)(=O)c1cc(Cl)cc(O)c1O
142 to 145 °C

Indicate the recorded melting point value for this compound: CCC1(C)Cc2cc(O)c(Cl)c(Cl)c2C1=O (stereo not given)
215 to 217 °C

Give melting point for the following compound: CN(CC(=O)O)S(=O)(=O)c1ccc(Cl)cc1
180 to 182 °C

Quote melting point reported for CC(C)N(CCN1C(=O)/C(=N/NC(N)=O)c2cc(F)ccc21)C(C)C please.
158 to 160 °C

Return the recorded melting point value; entry: OC12C=C(C3NCCc4c3[nH]c3ccccc43)C3CCN(CCCCC=CCC1)CC31CC3C=CCCCCN3C21 (stereo not given)
165 to 168 °C

Note down melting point recorded for CCCC(=O)C(=O)C(CC1CCCCC1)NC(=O)C(CC(C)C)NC(=O)C(Cc1ccccc1)NC(=O)C1CCCC1 (stereo not given)
152 to 161 °C

---
Input CNC(=O)C(NC(=O)c1ccc(F)cc1C(F)(F)F)C(O)CSc1cccc(F)c1 (stereo not given) , output reported melting point.
172 °C

====

READOUT: melting point

Specify reported melting point for the molecule shown: COc1ccccc1CNC(=O)c1c(-c2ccc(C)cc2)c2cccnc2c(=O)n1CCCCO
205 to 206 °C

Note melting point for the molecule shown: CC(=O)NCC1CC(c2ccc(N3CCCC3)c(F)c2)=NO1 (stereo not given)
141 to 143 °C

Specify melting point for NCc1ccccc1-c1ccc(C(=O)N2Cc3ccc(C(=O)NCc4cccnc4)n3Cc3ccccc32)cc1 and stop.
115 to 120 °C

Tell me melting point reported for CC(O)c1ccc(-c2ccc3c(c2)CC(C(=O)O)O3)cc1 (stereo not given)
155 to 157 °C

Further cases:
// fetch melting point given entry CCCc1c(C(=O)c2ccc(OS(=O)(=O)c3ccc(C)cc3)cc2)c2ccccn2c1C(C)=O
125 to 126 °C
